biological target: wildtype HIV-1 protease (Human immunodeficiency virus type 1 group M subtype B); construct: the wildtype HIV-1 protease (which was expressed in Escherichia coli); made in house; host or cells: Escherichia coli; assay: Assay for inhibition of microbial expressed HIV protease (Pepcleav); assay type: biochemical; details: wild type HIV-1 protease expressed in E. coli, peptide substrate, pH 5.5; mean of at least two independent experiments; read-out: Pepcleav
Measurement label: IC50 (nM)
Use nM as the unit, but write only the number.

Compound | Measured on | Measurement label | Unit label | Recorded measurement
N[C@H](C(=O)Nc1cncc(F)c1CC[C@@H]1CN[C@H](CO)CO1)[C@@H](c1ccccc1)c1ccnc2ccccc12 [Example 249] | wildtype HIV-1 protease (Human immunodeficiency virus type 1 group M subtype B) | IC50 | nM | 9.4
COC(=O)NCC(=O)Nc1ccccc1CC[C@@H]1CO[C@H](CCc2ccccc2NC(=O)[C@@H](NC(=O)OC)C(c2ccccc2)c2ccccc2)CN1 [Example 69] | wildtype HIV-1 protease (Human immunodeficiency virus type 1 group M subtype B) | IC50 | nM | 3.4

Okay, next one:
For N[C@H](C(=O)Nc1ccc(F)cc1CC[C@@H]1CN[C@H](COC(=O)NCC(F)F)CO1)C(c1ccccc1)c1ccccc1 [Example 192] , write its IC50.
130

###

molecular target: wildtype HIV-1 protease (Human immunodeficiency virus type 1 group M subtype B, UniProt P04585); construct: the wildtype HIV-1 protease (which was expressed in Escherichia coli); made in house; host or cells: Escherichia coli; assay: Assay for inhibition of microbial expressed HIV protease (Pepcleav); assay type: biochemical; conditions: wild type HIV-1 protease expressed in E. coli, peptide substrate, pH 5.5; mean of at least two independent experiments; read-out: Pepcleav
Consider the cut-off 10 nM. If the recorded IC50 is strictly smaller, the label is Fulfilled; if not, the label is Not fulfilled.

Field: example entries. Status: answers known.
Compound | Class assignment
COC(=O)N[C@H](C(=O)Nc1cccc(F)c1CC[C@@H]1CN[C@H](COC(=O)NCC(F)(F)F)CO1)C(c1ccc(F)cc1)c1ccc(F)cc1 [Example 285] | Not fulfilled
N[C@H](C(=O)Nc1cccc(F)c1CC[C@@H]1CN[C@H](COC(=O)NCC(F)(F)F)CO1)[C@H](c1ccc(F)cc1)c1ccc(F)c(F)c1 [Example 270] | Fulfilled
CC1(CNC(=O)OC[C@@H]2CO[C@H](CCc3c(F)cncc3NC(=O)CC(c3ccc(F)cc3)c3ccc(F)cc3)CN2)CCCO1 (stereo partly drawn) [Example 166] | Not fulfilled
N[C@H](C(=O)Nc1cncc(F)c1CC[C@@H]1CN[C@H](COC(=O)NCC2CCCCO2)CO1)C(c1ccc(F)cc1)c1ccc(F)cc1 (stereo partly drawn) [Example 213] | Fulfilled

Read the next record carefully.
Lab note: IC50 threshold 10 nM. Does this compound come in strictly under it? CC1(CNC(=O)OC[C@@H]2CO[C@H](CCc3c(F)cncc3NC(=O)[C@@H](N)C(c3ccc(F)cc3)c3ccc(F)cc3)CN2)CCCO1 (stereo partly drawn) [Example 123]
Fulfilled

###

target: wildtype HIV-1 protease (Human immunodeficiency virus type 1 group M subtype B); construct: the wildtype HIV-1 protease (which was expressed in Escherichia coli); made in house; host or cells: Escherichia coli; assay: Assay for inhibition of microbial expressed HIV protease (Pepcleav); format: biochemical; settings: wild type HIV-1 protease expressed in E. coli, peptide substrate, pH 5.5; mean of at least two independent experiments; read-out: Pepcleav
pIC50: −log10 of the molar value.
Output condition met for pIC50 not less than 8; output condition not met otherwise.

Example results:
Compound | Measured on | Class assignment
N[C@H](C(=O)Nc1cccc(F)c1CC[C@@H]1CN[C@H](COC(=O)NCC(F)(F)F)CO1)[C@H](c1ccccc1)c1ccc2ccccc2c1 | wildtype HIV-1 protease (Human immunodeficiency virus type 1 group M subtype B) | condition not met
N[C@H](C(=O)Nc1cncc(F)c1CC[C@@H]1CNC(COC(=O)NCC(F)(F)F)CO1)[C@@H](c1ccc(F)cc1)c1cc(F)cc(F)c1 (stereo in doubt) | wildtype HIV-1 protease (Human immunodeficiency virus type 1 group M subtype B) | condition met
N[C@H](C(=O)Nc1cccc(F)c1CC[C@@H]1CN[C@H](COC(=O)NCC(F)(F)F)CO1)[C@H](c1ccc(F)cc1)c1cccc(Cl)c1 | wildtype HIV-1 protease (Human immunodeficiency virus type 1 group M subtype B) | condition met
N[C@H](C(=O)Nc1cncc(F)c1CC[C@@H]1CN[C@H](COC(=O)NC[C@@H]2CCC(=O)N2)CO1)C(c1ccc(F)cc1)c1ccc(F)cc1 | wildtype HIV-1 protease (Human immunodeficiency virus type 1 group M subtype B) | condition not met
N[C@@H](C(=O)Nc1cncc(F)c1CC[C@@H]1CN[C@H](CO)CO1)[C@@H](c1ccccc1)c1ccnc2ccccc12 | wildtype HIV-1 protease (Human immunodeficiency virus type 1 group M subtype B) | condition not met

Quick check: does CC(C)(CO)NC(=O)OC[C@@H]1CO[C@H](CCc2c(F)cncc2NC(=O)[C@@H](N)C(c2ccc(F)cc2)c2ccc(F)cc2)CN1 have pIC50 greater than or equal to 8?
condition met

Please indicate if the recorded pIC50 for CC[C@@H](NC(=O)OC[C@@H]1CO[C@H](CCc2c(F)cncc2NC(=O)[C@@H](N)C(c2ccc(F)cc2)c2ccc(F)cc2)CN1)C(F)(F)F meets or exceeds 8.
condition met

Please check the record COC(=O)N[C@H](C(=O)Nc1cncnc1CC[C@@H]1CN[C@H](COC(=O)NCC(F)(F)F)CO1)C(c1ccccc1)c1ccccc1 and state if its pIC50 is at or above 8.
condition not met

Test whether the compound N[C@H](C(=O)Nc1cccc(F)c1CC[C@@H]1CN[C@H](COC(=O)NCC(F)(F)F)CO1)[C@@H](c1ccc(F)cc1)c1cccc(OC(F)(F)F)c1 records pIC50 of 8 or higher.
condition met
